System tested: Phosphotyrosine-protein phosphatase PTPB (Mycobacterium tuberculosis)
Protocol description: Competitive inhibition of Mycobacterium tuberculosis N-terminal His6-tagged PTPB assessed as production of p-nitrophenol from pNPP substrate by Lineweaver-Burk plot analysis
Assay readout: pKi
Answer as the number alone; pKi is minus log10 of concentration in mol/L.

Task: Value lookup for pKi; key = CC(NC(=O)C(=O)NCc1cccnc1)C(c1cccs1)N1CCN(c2ccc(F)cc2)CC1 (configuration not stated)
Output: 5.40

Task: Value lookup for pKi; key = COc1ccc(N2CCN(C(c3cccs3)C(C)NC(=O)C(=O)NCc3ccco3)CC2)cc1 (configuration not stated)
Output: 5.49

---

Kindly state IC50 for each of the entries shown.
System tested: Phosphotyrosine-protein phosphatase PTPB (Mycobacterium tuberculosis)
Protocol description: Inhibition of Mycobacterium tuberculosis N-terminal His6-tagged PTPB preincubated with compound for 30 mins before pNPP substrate addition by microplate spectrophotometer analysis

Task: Value lookup for IC50; key = CC(NC(=O)C(=O)NCc1cccnc1)C(c1cccs1)N1CCN(c2ccc(F)cc2)CC1 (stereo not given)
Output: 14 µM

Task: Value lookup for IC50; key = `CCCCCCCOC(=O)c1c(C)oc2ccc(NS(=O)(=O)c3ccc4c5c(cccc35)C(=O)N4)cc12`
Output: 22.8 µM

Task: Value lookup for IC50; key = CC(NC(=O)C(=O)NCc1ccc2c(c1)OCO2)C(c1cccs1)N1CCN(c2ccccc2)CC1 (stereo not given)
Output: 25.1 µM

Task: Value lookup for IC50; key = COc1ccc(N2CCN(C(c3cccs3)C(C)NC(=O)C(=O)NCc3ccco3)CC2)cc1 (stereo not given)
Output: 6.3 µM

Task: Value lookup for IC50; key = `O=C1Nc2ccc(S(=O)(=O)Nc3ccc4oc5c(c4c3)CCCC5)c3cccc1c23`
Output: 10.8 µM

Task: Value lookup for IC50; key = `CCCCCOC(=O)c1c(C)oc2ccc(NS(=O)(=O)c3ccc4c5c(cccc35)C(=O)N4)cc12`
Output: 20.8 µM

Task: Value lookup for IC50; key = CC(NC(=O)C(=O)NCCc1c[nH]c2ccccc12)C(c1cccs1)N1CCN(c2ccc(F)cc2)CC1 (stereo not given)
Output: 17.5 µM

Task: Value lookup for IC50; key = COc1ccccc1CNC(=O)C(=O)NC(C)C(c1cccs1)N1CCN(c2ccc(F)cc2)CC1 (stereo not given)
Output: 15.8 µM

Task: Value lookup for IC50; key = `CCCCc1ccc(NS(=O)(=O)c2ccc3c4c(cccc24)C(=O)N3)cc1`
Output: 1.4 µM

Task: Value lookup for IC50; key = `O=C1Nc2ccc(S(=O)(=O)Nc3cc(Cl)c(O)c4ccccc34)c3cccc1c23`
Output: 12.8 µM

---

System tested: Phosphotyrosine-protein phosphatase PTPB (Mycobacterium tuberculosis, UniProt P96830)
Sequence (P96830 whole entry): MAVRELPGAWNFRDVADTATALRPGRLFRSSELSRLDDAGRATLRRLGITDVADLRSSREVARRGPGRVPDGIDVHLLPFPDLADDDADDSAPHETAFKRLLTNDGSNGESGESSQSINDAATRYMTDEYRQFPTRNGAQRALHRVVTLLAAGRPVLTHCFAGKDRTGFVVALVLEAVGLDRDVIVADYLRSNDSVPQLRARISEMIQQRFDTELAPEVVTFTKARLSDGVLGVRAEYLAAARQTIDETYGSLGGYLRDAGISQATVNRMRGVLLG
Protocol description: Inhibition of Mycobacterium tuberculosis PTPB expressed in Escherichia coli after 5 mins by microplate spectrophotometer analysis
Assay readout: pIC50
Answer as the number alone; pIC50 is minus log10 of concentration in mol/L.

Task: Value lookup for pIC50; key = COc1ccc(N2CCN(C(c3cccs3)C(C)NC(=O)C(=O)NCc3ccco3)CC2)cc1 (stereo not drawn)
Output: 5.25

Task: Value lookup for pIC50; key = `CCCCc1ccc(NS(=O)(=O)c2ccc3c4c(cccc24)C(=O)N3)cc1`
Output: 5.89

Task: Value lookup for pIC50; key = CC(NC(=O)C(=O)NCc1cccnc1)C(c1cccs1)N1CCN(c2ccc(F)cc2)CC1 (stereo not drawn)
Output: 4.94

These data points were gathered from ChEMBL document CHEMBL1773067.
